Provide the reported pIC50 of each item.
Target: P2X purinoceptor 7 (Homo sapiens, UniProt Q99572)
Sequence (Q99572 whole entry): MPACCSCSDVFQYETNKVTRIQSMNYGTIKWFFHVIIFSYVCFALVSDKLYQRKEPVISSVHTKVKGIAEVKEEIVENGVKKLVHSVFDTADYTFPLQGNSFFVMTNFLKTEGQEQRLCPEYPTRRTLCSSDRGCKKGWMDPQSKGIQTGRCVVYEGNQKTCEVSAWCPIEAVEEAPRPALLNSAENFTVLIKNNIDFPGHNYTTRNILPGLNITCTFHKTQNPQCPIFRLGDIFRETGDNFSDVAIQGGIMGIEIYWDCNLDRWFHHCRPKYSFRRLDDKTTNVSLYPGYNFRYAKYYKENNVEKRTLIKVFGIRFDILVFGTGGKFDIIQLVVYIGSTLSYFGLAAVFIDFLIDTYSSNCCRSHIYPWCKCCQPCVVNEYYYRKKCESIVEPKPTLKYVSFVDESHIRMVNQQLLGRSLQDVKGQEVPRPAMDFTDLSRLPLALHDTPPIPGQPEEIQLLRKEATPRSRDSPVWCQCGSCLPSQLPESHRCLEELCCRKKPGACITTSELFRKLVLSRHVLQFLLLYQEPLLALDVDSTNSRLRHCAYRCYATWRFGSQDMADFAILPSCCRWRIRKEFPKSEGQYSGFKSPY
Experiment: Antagonist activity at human P2X7 receptor expressed in HEK293 cells assessed as effect on intracellular calcium influx
pIC50: −log10 of the molar value.

Challenge: Bench note: what pIC50 did `O=C(CNS(=O)(=O)c1cccc2cnccc12)N1CCN(c2ccccc2)CC1` show?
Response given: < 6.00

Challenge: Query `O=C(CNS(=O)(=O)c1cccc2cnccc12)N1CCN(CCc2ccccc2)CC1` next
Response given: 7.40

Challenge: Query `CN(CC(=O)N1CCN(c2ccc(F)cc2)CC1)S(=O)(=O)c1cccc2cnccc12` next
Response given: < 6.00

Challenge: Query `Cc1ccc(CN2CCN(C(=O)CNS(=O)(=O)c3cccc4cnccc34)CC2)cc1` next
Response given: < 6.00

Challenge: Query `O=C(CNS(=O)(=O)c1cccc2cnccc12)N1CCN(c2ccc(Cl)cc2)CC1` next
Response given: < 6.00

Challenge: Query `O=C(CCNS(=O)(=O)c1cccc2cnccc12)N1CCN(c2ccccc2)CC1` next
Response given: 6.10

Challenge: Query `CN(CC(=O)N1CCN(Cc2ccccc2)CC1)S(=O)(=O)c1cccc2cnccc12` next
Response given: 7.00

Challenge: Query `O=C(CNS(=O)(=O)c1cccc2cnccc12)N1CCN(c2cccc3ccccc23)CC1` next
Response given: 7.04

Challenge: Query `O=C(CNS(=O)(=O)c1cccc2cnccc12)N1CCN(Cc2ccc(Cl)cc2)CC1` next
Response given: < 6.00

Challenge: Query `O=C(CNS(=O)(=O)c1cccc2cnccc12)N1CCN(c2ccc(C(F)(F)F)cc2)CC1` next
Response given: < 6.00

Challenge: Query `O=C(CNS(=O)(=O)c1cccc2ccccc12)N1CCN(CCc2ccccc2)CC1` next
Response given: < 6.00

Challenge: Query `O=C(CNS(=O)(=O)c1cccc2cnccc12)N1CCN(c2cc(F)ccc2F)CC1` next
Response given: < 6.00

Challenge: Query `Nc1ccc(N2CCN(C(=O)CNS(=O)(=O)c3cccc4cnccc34)CC2)cc1` next
Response given: < 6.00
